PROTOCOL DESCRIPTION: soluble on expression in E. coli; label from the status in PepcDB or PDB records
RECORDED METRIC: soluble on expression in E. coli

MGSDKIHHHHHHMDDFVQSKARKDIFRLKAYVPGKPIEEVKRELGLDSIIKLASNENPLGTSPLALAALQEGLNKIHLYPDANAYELKQELASFWQVPAEQIVVGNGSDELLLLLAQTFINPGDEVIHAEQTFSEYESTSTLMGAHSITIPLKEYKYDLKAILEAINTRTKIIYLCNPNNPTGTIVEQEEIELFMQQVPGEILVVFDEAYGEYVDNPAFGSGLQYLREGRNIVLLKTFSKIYGLAGLRIGYVITTPAIAAALDRVREPFNVNFAAQIAAQAALRDIDFVEKSRQLNLQGKDYLYQELARLGLDYVKTNTNFIFLDTGRDCQLVFRELLQRGVIIRTGDIFGYPTFIRLTIGTMEENRRFIKSLQEVLEVIPL : not soluble
MGSDKIHHHHHHMLKGIPHDSPLYEVDEDRGIEYRNCDAIVGFFTIKGDVSDLLPEGLKAYSKPAQGGIWISHYSFSTVGEYHEYLTVIQVEDEQGDMGYYIPYIYVTNDSALAAGRELAGAPKKLANIGLVKELDVVMGYLERPTGKRLVTFVMKPNTRALGGMIDFVLPKPTYLYSVRHLPPIKGKGGVTQLVKWYADIDFHVDPKGERAIFMGPGNITYDSPSVIDPVHKVEIDTLMTALYFQFDMKLGFVDILREY : not soluble
MGSDKIHHHHHHMKRINRFAVQIDVEGRTELAHLHDPGRLLEIVYPGNEVLVRRTDGPKLKWRIEFGKINGRYVLIDSGLHSDIARRFLPEGAVPEVRVGRKRIDFRYGDDYIEVKGCTLMANGIAMFPDAPTKRGLEHLKTLETLASSGYRSHVMMIITRDDVRCFYPNFETDPKFAEAFLRLVPAYVKAHFLTFGFDGLYLRYAGSIGLCADVGHGTNGRL : not soluble

###

PROTOCOL DESCRIPTION: soluble on expression in E. coli; label from the status in PepcDB or PDB records
RECORDED METRIC: soluble on expression in E. coli

MGSDKIHHHHHHMTTLDALRVFVEVVRAGSFTAAARRLSISKSLASKRVAALEDELSVNLLNRSTRSLRLTEAGQIYYEHGLRVIEELQSAEAQVQSVTSQPRGQLKVSAQVSFGFMYLAAPTTAFMRRYPDVSVEILLEDQRFEPIDDSVDLAIRMGPLPPSSLVSRPLCKVVYGLYAAPDYLARAGRPLHPRDIADYDTVFYGNYDLGAHWRFSLNGQPLDIEPNSRLVINNLLGVVEAAKSGFGLAYLPTFAARAAVEEGQLIPLLQPYWNEHGSMLVLFRSRKYLPDKTRAYLDFITDWFREHLAL : not soluble
MRRNSKERKNRATRRSQGSYQEIIGRTWIFRGAHRGRVTRRNIIWHELIGLRVRIVGSTHPAFVGIEGYVIDETRNMLVIAGDRIWKVPKDVCIFEFEADDGTKIKIPGERLVGRPEMRLKKRWKKWLEHHHHHH : not soluble

###

PROTOCOL DESCRIPTION: soluble on expression in E. coli; label from the status in PepcDB or PDB records
RECORDED METRIC: soluble on expression in E. coli

MSLSETLRLGLICAGRMGSFHGQTAALRIPGACLAAIADPTPGQAARLATELGVERFYTDPQQLLDDPDIDGVLIAAPARSHAELVISAARAGKGVFCEKPMAITLDEADRAIAAAADAQVTLQVGFNRRFAKSFRTAHLDVVAGRIGTPQLLRSLTRDPALNNPAASPQWVIFLETLIHDFDSLRYLNPGAEAVEVFVMADALIAPDYKSKGFLDTAVVTIRFDNGAIATAEANFQAVYGYDVRGEVFGSAGMLTMGSVNDSDLVRYLANGIQSDTQRLDTDLLRDAYVAELNHFADCLRTGAKPLASGEDARAALAIARACIESFQLGKAVRVEGARSEGHHHHHH : not soluble
GQGVSRSGALDLGALRSANRTVGNPSDMACVESVLGGLSFSCHGSAVIAITGAHTPVTITSASGLQWQASNYQPIELETGDRVSLGSPKAGLRSYLAIRGGFDVTPVLGSLSTDTLAQLGPEALATGDRLGFTAPVNGTSVSLNEAPAFELPTTANIVTLDVVMGPRTDWFTENAIQRLSSQLWRVTPQSNRVGIRLAGDTPLERSNHQELPSEGTSVGAIQVPASGQPVLFLADHPLTGGYPVIASVASHHLDLAGQIPVNAQIRFNPLGAFEEMQPSTEASFSTADAKNNS : not soluble
